Tested on: Lewis lung carcinoma i.m., BDF1 mice, T/C %
run-description: NCI In Vivo Anticancer Drug Screen. Data for tumor model Lewis Lung Carcinoma (intramuscular) in B6D2F1 (BDF1) mice
conditions-used: endpoint: median survival time; dose: 100.0 mg/kg/injection; schedule: Q01DX011 (ip); vehicle: Klucel (hydroxypropylcellulose) (HPC); higher = longer survival
Inconclusive results are not listed.
Please respond with reported T/C for every item in the list.

compound | T/C
CC(=O)OCC1OC(n2ncc(=O)[nH]c2=O)C(OC(C)=O)C1OC(C)=O (centres undefined) | 112 % of control

Give T/C for each of the items listed below.
1. CC(=O)O[C@]1(C(C)=O)CC[C@H]2[C@@H]3C[C@H](C)C4=CC(=O)CC[C@]4(C)[C@H]3CC[C@@]21C
2. Clc1ccc(C(c2ccccc2Cl)C(Cl)Cl)cc1 (centres undefined)

Data returned:
1: 104 % of control; 2: 95 % of control

Data request: Please give the measured T/C for this compound: "O=C1CN=C(c2ccc[nH]2)c2cc(Cl)ccc2N1"
Data returned: 100 % of control

* * *

Test system: Lewis lung carcinoma i.m., BDF1 mice, T/C %
run-description: NCI In Vivo Anticancer Drug Screen. Data for tumor model Lewis Lung Carcinoma (intramuscular) in B6D2F1 (BDF1) mice
conditions-used: endpoint: median survival time; dose: 0.25 mg/kg/injection; schedule: Q01DX011 (ip); vehicle: saline; higher = longer survival
Inconclusive results are not listed.
property-name: T/C

Give T/C for each of the items listed below.
1. COc1c2c([n+](C)c3c(OC)cccc13)OC(C(C)C)C2 (stereo unspecified)
2. C[C@]12CC[C@H](OC3OC(CO)C(O)C(O)C3O)C[C@H]1CC[C@@H]1[C@@H]2CC[C@]2(C)[C@@H](C3=CCOC3=O)CC[C@]12O (stereo partly specified)
3. C=CCN1/C(=C/C=C\c2sc3ccccc3[n+]2CC=C)Sc2ccccc21

Data returned:
1. 90 % of control
2. 110 % of control
3. 87 % of control

* * *

Test system: Lewis lung carcinoma i.m., BDF1 mice, T/C %
run-description: NCI In Vivo Anticancer Drug Screen. Data for tumor model Lewis Lung Carcinoma (intramuscular) in B6D2F1 (BDF1) mice
conditions-used: endpoint: median survival time; dose: 10.0 mg/kg/injection; schedule: Q01DX011 (ip); vehicle: saline with Tween-80; higher = longer survival
Inconclusive results are not listed.
Please respond with reported T/C for every item in the list.

Solved entries (count: 5):
compound | T/C
Cc1[nH]c(=O)[nH]c(=O)c1N(CCF)CCCl | 105 % of control
O=Nc1c(N=O)c(N=O)c(N=O)c(N=O)c1N=O | 106 % of control
N#Cc1c(F)c(F)c(C#N)c(F)c1F | 89 % of control
CC(=O)Nc1cc(F)c([N+](=O)[O-])cc1[N+](=O)[O-] | 113 % of control
CC1([CH2][Hg][I])CS(=O)(=O)CC(C)([CH2][Hg][I])O1 (stereo unspecified) | 112 % of control

Now for another entry.
Data request: Please give the measured T/C for this compound: "Cc1c[n+]2c3ccccc3c3ccccc3c2s1"
Data returned: 89 % of control

* * *

Test system: Lewis lung carcinoma i.m., BDF1 mice, T/C %
run-description: NCI In Vivo Anticancer Drug Screen. Data for tumor model Lewis Lung Carcinoma (intramuscular) in B6D2F1 (BDF1) mice
conditions-used: endpoint: median survival time; dose: 5.0 mg/kg/injection; schedule: Q01DX011 (ip); vehicle: saline
Results filed as inconclusive are left out. How the source made its calls: active means survival T/C of 150% or more; inactive means T/C below 125% in these data.
Entry note: the call must match one of 1 (yes) = active, 0 (no) = inactive

Example results:
compound | class-assignment
Cc1c(N)nc([C@H](CC(N)=O)NC[C@H](N)C(N)=O)nc1C(=O)N[C@H](C(=O)N[C@H](C)[C@@H](O)[C@H](C)C(=O)N[C@H](C(=O)NCCc1nc(-c2nc(C(=O)NCCC[S+](C)C)cs2)cs1)[C@@H](C)O)C(OC1OC(CO)C(O)C(O)C1OC1OC(CO)C(O)C(OC(N)=O)C1O)c1cnc[nH]1 (stereo not given in full) | 1 (yes)
Cc1ccc2c(C)c3c(ccc4ccccc43)c[n+]2c1 | 0 (no)

Data request: How was "Cc1c2c(ccc3ccccc32)c[n+]2ccccc12" classified in this test?
Data returned: 0 (no)

Data request: "CC1(C)N=C(N)N=C(N)N1c1ccc(CCCCc2ccc(Cl)cc2Cl)cc1" , same question.
Data returned: 0 (no)

Data request: "C(=C\c1ccccc1)/C[P+](c1ccccc1)(c1ccccc1)c1ccccc1" , same question.
Data returned: 0 (no)

Data request: "Cc1[nH]c(=O)[nH]c(=O)c1N(CCF)CCCl" , same question.
Data returned: 0 (no)

Data request: "O=C1C=C(N2CC2)c2ccccc2C1=O" , same question.
Data returned: 0 (no)

Data request: COC1N(C2CC(O)C(CO)O2)C(=O)NC(=O)C1(F)Br (stereo not given) , same question.
Data returned: 0 (no)

Data request: "Clc1nc2ccccc2nc1CI" , same question.
Data returned: 0 (no)

Data request: CC(=O)OC(C1CO1)C(OC(C)=O)C1CO1 (stereo not given) , same question.
Data returned: 0 (no)

* * *

Tested on: Lewis lung carcinoma i.m., BDF1 mice, T/C %
run-description: NCI In Vivo Anticancer Drug Screen. Data for tumor model Lewis Lung Carcinoma (intramuscular) in B6D2F1 (BDF1) mice
conditions-used: endpoint: mean tumor weight; dose: 25.0 mg/kg/injection; schedule: Q01DX011 (ip); vehicle: Klucel (hydroxypropylcellulose) (HPC); higher = larger tumour
Description: The antitumor activity of compounds was measured in mice bearing transplantable tumors. Survival or tumor size were measured and the results are expressed as the measurement made in the treated group (T) divided by the measurement made in the vehicle treated control group (C). The tumor model used in this assay is Lewis Lung Carcinoma (intramuscular) in B6D2F1 (BDF1) mice
Records with an inconclusive call do not appear.
Please respond with reported T/C for every item in the list.

Solved entries (count: 5):
compound | T/C
OC(CBr)C(O)C(O)C(O)CBr (stereo unspecified) | 85 % of control
O=C1CN=C(c2ccc[nH]2)c2cc(Cl)ccc2N1 | 82 % of control
OCC1OC(n2cnc3c(Cl)ncnc32)C(O)C1O (stereo unspecified) | 44 % of control
CC(CN1CC(=O)NC(=O)C1)N1CC(=O)NC(=O)C1 (stereo unspecified) | 39 % of control
CS(=O)(=O)OCCCCOS(C)(=O)=O | 109 % of control

Data request: Please give the measured T/C for this compound: CC(=O)OCC1OC(n2ncc(=O)[nH]c2=O)C(OC(C)=O)C1OC(C)=O (stereo unspecified)
Data returned: 78 % of control

* * *

Test system: Lewis lung carcinoma i.m., BDF1 mice, T/C %
run-description: NCI In Vivo Anticancer Drug Screen. Data for tumor model Lewis Lung Carcinoma (intramuscular) in B6D2F1 (BDF1) mice
conditions-used: endpoint: median survival time; dose: 2.0 mg/kg/injection; schedule: Q01DX011 (ip); vehicle: saline
Results filed as inconclusive are left out. The calls were made as follows: active = survival T/C of 150% or more; inactive = T/C below 125% in these data.
Entry note: the call must match one of TRUE for active, FALSE for inactive

compound | class-assignment
O=NN(CCCl)C(=O)NCCCl | FALSE
CCCCCCCCCCCCCCCCCC[n+]1cccc(C(=O)N2CCOCC2)c1 | FALSE
Cc1c(N)nc([C@H](CC(N)=O)NC[C@H](N)C(N)=O)nc1C(=O)N[C@H](C(=O)N[C@H](C)[C@@H](O)[C@H](C)C(=O)N[C@H](C(=O)NCCc1nc(-c2nc(C(=O)NCCC[S+](C)C)cs2)cs1)[C@@H](C)O)C(OC1OC(CO)C(O)C(O)C1OC1OC(CO)C(O)C(OC(N)=O)C1O)c1cnc[nH]1 (some centres undefined) | TRUE

We next turn to a different compound, shown below.
Data request: How was COc1cc([C@@H]2c3cc4c(cc3[C@@H](OC3OC5CO[C@@H](c6cccs6)OC5C(O)C3O)[C@H]3COC(=O)[C@H]23)OCO4)cc(OC)c1O (some centres undefined) classified in this test?
Data returned: FALSE

* * *

Please respond with reported T/C for every item in the list.
Tested on: Lewis lung carcinoma i.m., BDF1 mice, T/C %
run-description: NCI In Vivo Anticancer Drug Screen. Data for tumor model Lewis Lung Carcinoma (intramuscular) in B6D2F1 (BDF1) mice
conditions-used: endpoint: median survival time; dose: 4.0 mg/kg/injection; schedule: Q01DX009 (ip); vehicle: water; higher = longer survival
Records with an inconclusive call do not appear.

Give T/C for each of the items listed below.
1. COC(=O)C1Cc2cncn2C(=O)N1 (stereo unspecified)
2. CCOC(=O)C(CS)NC(=O)CCNC(C)=O (stereo unspecified)
3. CCOC(=O)c1nc(C)[nH]c(=O)c1C
4. Cc1c(C(=O)O)nc(/C=C/C(=O)O)[nH]c1=O

Data returned:
1. 113 % of control
2. 109 % of control
3. 94 % of control
4. 105 % of control

Give T/C for each of the items listed below.
1. Cc1nc(N)c(C)c(C(=O)O)n1
2. CC(C(=O)O)N1C(=O)c2ccccc2C1=O (stereo unspecified)

Data returned:
["110 % of control", "110 % of control"]
